# Tested on: UO-31 renal
# assay.overview: NCI tumour cell line growth inhibition, 48 h
readout.name: TGI (µM)
Give the quantity in µM, number only.

compound="Cc1ccc(C2CC(c3cccc(Nc4ccncc4)c3)=NN2c2ccc(Cl)cc2)cc1 (stereo unspecified)" readout_name=TGI value_units=µM observed_value=2.63
compound=C=C1C(=O)O[C@H]2[C@H]3O[C@@H](C[C@@H]12)[C@](C)(O)CCCC(C)=CCC[C@H]3C readout_name=TGI value_units=µM observed_value=23.5
compound="O=[N+]([O-])c1ccc(C2N3CCCCC3[C@@H]3c4[nH]c5ccccc5c4CCN23)cc1 (stereo partly specified)" readout_name=TGI value_units=µM observed_value=81.8

Look up TGI: O=C1/C(=C/c2ccc(O)cc2)CCc2ccccc21
47.9

What does the data say about its TGI? Entry: CC1=C(C(=O)Nc2ccc(Cl)c(Cl)c2)C(c2cccc(O)c2)NC(=S)N1 (stereo unspecified)
19.1

I am curious: what TGI value has been reported for O=C(NO)c1ccc(OCc2ccccc2)cc1 ?
72.8

// query TGI value for entry CCNCCNc1cc(C2CCCC2)c(C#N)c2nc3ccccc3n12
3.18

Endpoint output: TGI of Clc1ccc(-c2cc(-c3nc4ccccc4[nH]3)no2)cc1 . Value?
34.7

Item CC(C)(Cc1ccccc1)Cc1cc(O)ccc1O has what recorded TGI?
26.3

Consider the compound O=C(Nc1ccc(Cl)cc1Cl)/C(Cl)=C1/Sc2ccccc2NC1=O and give its measured TGI.
77.2

Consider the compound N=C(N)c1ccc(-c2ccc(-c3ccc(C(=N)N)cc3)o2)cc1 and give its measured TGI.
68.1

* * *

# System: EKVX NSCLC
# assay.overview: NCI tumour cell line growth inhibition, 48 h; in the data active = GI50 below about 0.43 µM; inactive = the rest
Give one outcome, nothing more. List: y for active, n for inactive

compound="COc1ccc(C2SC(C)C(=O)N2NC(=O)C(O)c2ccccc2)cc1 (centres undefined)" group_label=n

Dear colleague, could you share the recorded outcome for COc1cc2c(cc1C)NC(=O)/C2=C/c1c(C)nc2sc(C)cn12 when you have a moment?
n

Dear colleague, could you share the recorded outcome for O=C(CN/C=C\C(=O)c1cc(Cl)ccc1Cl)c1ccccc1 when you have a moment?
n

So what was the verdict on COc1cccc(-c2cc(NCc3ccc4c(c3)OCO4)nc(N)n2)c1 in this test?
n

# outcome recorded in this test, key = C[C@H]1[C@H](C)CC[C@]2(C(=O)O)CC[C@]3(C)C(=CC[C@@H]4[C@@]5(C)CC[C@H](OC(=O)/C=C\c6ccc(O)cc6)C(C)(C)[C@@H]5CC[C@]43C)[C@H]12
n

* * *

Items are presented alongside their recorded TGI.
# Tested on: EKVX NSCLC
# assay.overview: NCI tumour cell line growth inhibition, 48 h

Below, each entry is followed by its recorded TGI result.
compound=CCCCC/C(=N\c1nc[nH]c1C(N)=O)OCC observed_value="> 100 µM"
compound=C=CCn1c(=S)sc2c(=O)[nH]cnc21 observed_value="> 100 µM"
compound="Cc1cccc(C(O)c2ccccn2)c1O (centres undefined)" observed_value="> 100 µM"

Quick one: TGI for COc1ccc(OC)c2c3c(ncc12)-c1cc2c(cc1C3)OCO2 ?
> 100 µM

Quick one: TGI for COC(C(=O)[C@@H](O)[C@@H](C)O)[C@@H]1Cc2cc3cc(O[C@H]4C[C@@H](O[C@H]5C[C@@H](O)[C@H](O)C(C)O5)[C@H](O)C(C)O4)c(C)c(O)c3c(O)c2C(=O)[C@H]1O[C@H]1C[C@@H](O[C@H]2C[C@@H](O[C@H]3C[C@@H](O)[C@@H](O)C(C)O3)[C@@H](O)C(C)O2)[C@H](O)C(C)O1 (some centres undefined) ?
> 32.5 µM

Value lookup for TGI; key = CSc1ccc2c(c1)C(=O)c1c-2n(CCCN=[N+]=[N-])c(=O)c2cc([N+](=O)[O-])ccc12
> 100 µM

Would you mind telling me what TGI value was observed for FC(F)(F)c1ccccc1C=NC12CC3CC(CC(C3)C1)C2 ?
> 100 µM

Would you kindly share the measured TGI for COc1cc(OC)nc(NC(=O)NS(=O)(=O)c2cccc3ncn(C)c(=O)c23)n1 ?
> 100 µM

Can you share its TGI? I mean this compound: O=C(NC1CCN(Cc2ccccc2)CC1)c1ccccc1I
> 100 µM

State the recorded TGI for this entry: O=C(Nc1ncc(Cc2ccc(Cl)cc2)s1)c1ccc2c(c1)OCCO2
> 100 µM

Please report the recorded TGI for O=C(NO)c1ccc(OCc2ccccc2)cc1 .
> 100 µM

Requested field: TGI. Item: C[C@H]1[C@H](C)CC[C@]2(C(=O)O)CC[C@]3(C)C(=CC[C@@H]4[C@@]5(C)CC[C@H](OC(=O)/C=C\c6ccc(O)cc6)C(C)(C)[C@@H]5CC[C@]43C)[C@H]12
13.7 µM

May I ask what TGI has been recorded for COc1ccc(-n2nnnc2C2(Nc3ccccc3)CCN(Cc3ccccc3)CC2)cc1 ?
92 µM

Which TGI is reported for this compound? Cc1cccc2c(=O)c3c(sc12)c(NCCN)nc1ccccc13
1.71 µM

Data request, read-out TGI, for COC(=O)c1cc(/C=C2\Cc3cc4c(cc3C2=O)CCC4)cc2c1CCC2
> 100 µM

For the compound shown here, Cc1cc(Cl)ccc1Nc1nc(C(F)(F)F)ccc1C(=O)N/N=C/c1c(Cl)cccc1Cl , give the reported TGI.
2.97 µM

// returns reported TGI for input COC(=O)c1c/c(=N\NC(=O)CC(=O)Nc2ccc(C)cc2)c2ccccc2o1
> 100 µM

Could you tell me which TGI is on file for N=C(N)c1ccc(-c2ccc(-c3ccc(C(=N)N)cc3)o2)cc1 ?
91.6 µM

Looking for the measured TGI of CCOC(=O)C(SCCO)C(C(=O)OCC)n1cc(C)c(=O)[nH]c1=O (centres undefined) , can you help?
> 100 µM
